Measured values drawn from ChEMBL document CHEMBL3137667 for this set.

Conditions: human
QUANTITY_NAME: Hepatotoxicity (cytolytic)

[
  {
    "COMPOUND": "CC(=O)Oc1cc(C(C)C)c(OCCN(C)C)cc1C [MOXISYLYTE]",
    "QUANTITY_NAME": "Hepatotoxicity (cytolytic)",
    "VALUE": 5
  },
  {
    "COMPOUND": "Cc1cn([C@H]2CC[C@@H](CO)O2)c(=O)[nH]c1=O",
    "QUANTITY_NAME": "Hepatotoxicity (cytolytic)",
    "VALUE": 0
  },
  {
    "COMPOUND": "CCOC(=O)[C@H](CCc1ccccc1)N[C@H]1CCc2ccccc2N(CC(=O)O)C1=O [BENAZEPRIL]",
    "QUANTITY_NAME": "Hepatotoxicity (cytolytic)",
    "VALUE": 1
  },
  {
    "COMPOUND": "CCN1CCCC1CNC(=O)c1cc(S(N)(=O)=O)ccc1OC (stereo not drawn) [SULPIRIDE]",
    "QUANTITY_NAME": "Hepatotoxicity (cytolytic)",
    "VALUE": 0
  },
  {
    "COMPOUND": "CC/C(=C(/c1ccc(OCCN(C)C)cc1)c1cccc(O)c1)c1ccccc1 [DROLOXIFENE]",
    "QUANTITY_NAME": "Hepatotoxicity (cytolytic)",
    "VALUE": 0
  },
  {
    "COMPOUND": "CC1(C)S[C@@H]2[C@H](NC(=O)[C@H](NC(=O)N3CCNC3=O)c3ccccc3)C(=O)N2[C@H]1C(=O)O [AZLOCILLIN]",
    "QUANTITY_NAME": "Hepatotoxicity (cytolytic)",
    "VALUE": 0
  },
  {
    "COMPOUND": "CO[C@H]1/C=C/O[C@@]2(C)Oc3c(C)c(O)c4c(O)c(c(/C=N/N5CCN(C)CC5)c(O)c4c3C2=O)NC(=O)/C(C)=C\\C=C\\[C@H](C)[C@H](O)[C@@H](C)[C@@H](O)[C@@H](C)[C@H](OC(C)=O)[C@@H]1C [RIFAMPIN]",
    "QUANTITY_NAME": "Hepatotoxicity (cytolytic)",
    "VALUE": 14
  }
]

## Input Identify measured Hepatotoxicity (cytolytic) corresponding to O=C(O)CCCc1ccc(N(CCCl)CCCl)cc1 [CHLORAMBUCIL]
## Output 4

----------
Conditions: human
QUANTITY_NAME: Hepatotoxicity (steatosis)
Would you mind answering with just the numeric figure?

See these solved cases before continuing.
[
  {
    "COMPOUND": "O=c1[nH]c2ccccc2n1C1CCN(CCCC(c2ccc(F)cc2)c2ccc(F)cc2)CC1 [PIMOZIDE]",
    "Hepatotoxicity (steatosis)": 0
  },
  {
    "COMPOUND": "Nc1ccn([C@@H]2O[C@H](CO)[C@@H](O)[C@@H]2O)c(=O)n1",
    "Hepatotoxicity (steatosis)": 0
  },
  {
    "COMPOUND": "CNC1Cc2ccccc2N(C)c2ccccc21 (centres undefined)",
    "Hepatotoxicity (steatosis)": 1
  },
  {
    "COMPOUND": "Cc1ccnc2c1NC(=O)c1cccnc1N2C1CC1",
    "Hepatotoxicity (steatosis)": 0
  },
  {
    "COMPOUND": "Cc1cn([C@H]2C=C[C@@H](CO)O2)c(=O)[nH]c1=O",
    "Hepatotoxicity (steatosis)": 25
  },
  {
    "COMPOUND": "CC(C)(Sc1cc(C(C)(C)C)c(O)c(C(C)(C)C)c1)Sc1cc(C(C)(C)C)c(O)c(C(C)(C)C)c1",
    "Hepatotoxicity (steatosis)": 0
  }
]

## Input Identify measured Hepatotoxicity (steatosis) corresponding to O=P1(NCCCl)OCCCN1CCCl (centres undefined) [IFOSFAMIDE]
## Output 0

## Input Identify measured Hepatotoxicity (steatosis) corresponding to CC(C)NNC(=O)COc1ccc(Cl)cc1 [IPROCLOZIDE]
## Output 0

## Input Identify measured Hepatotoxicity (steatosis) corresponding to Cc1cc2c(cc1CC(=O)c1sccc1S(=O)(=O)Nc1onc(C)c1Cl)OCO2
## Output 0

## Input Identify measured Hepatotoxicity (steatosis) corresponding to Nc1c2c(nc3ccccc13)CCCC2
## Output 1

## Input Identify measured Hepatotoxicity (steatosis) corresponding to CCN[C@@H]1C[C@H](N)[C@@H](O[C@H]2OC(CN)=CC[C@H]2N)[C@H](O)[C@H]1O[C@H]1OC[C@](C)(O)[C@H](NC)[C@H]1O
## Output 0

## Input Identify measured Hepatotoxicity (steatosis) corresponding to Cc1cc2c(s1)Nc1ccccc1N=C2N1CCN(C)CC1
## Output 1

## Input Identify measured Hepatotoxicity (steatosis) corresponding to CC(/C=N/NC(=N)N)=N\NC(=N)N
## Output 0

## Input Identify measured Hepatotoxicity (steatosis) corresponding to COc1nc(C)ccc1CN1CC1C#N (centres undefined) [CIAMEXON]
## Output 0

## Input Identify measured Hepatotoxicity (steatosis) corresponding to NNc1nncc2ccccc12 [HYDRALAZINE]
## Output 0

## Input Identify measured Hepatotoxicity (steatosis) corresponding to CO[C@@]1(NC(=O)CSC[C@@H](N)C(=O)O)C(=O)N2C(C(=O)O)=C(CSc3nnnn3C)CS[C@@H]21
## Output 0

## Input Identify measured Hepatotoxicity (steatosis) corresponding to COc1c2occc2c(OC)c2c(=O)cc(C)oc12
## Output 0

## Input Identify measured Hepatotoxicity (steatosis) corresponding to O=C(Cn1c(=O)sc2ccc(Cl)cc21)N1CCN(CCO)CC1 [TIARAMIDE]
## Output 0

## Input Identify measured Hepatotoxicity (steatosis) corresponding to CO/N=C(\C(=O)N[C@@H]1C(=O)N2C(C(=O)OCOC(=O)C(C)(C)C)=C(Cn3nnc(C)n3)CS[C@H]12)c1csc(N)n1
## Output 0
